Tested Target: Amine oxidase [flavin-containing] B (Homo sapiens, UniProt P27338)
Sequence (P27338 whole entry): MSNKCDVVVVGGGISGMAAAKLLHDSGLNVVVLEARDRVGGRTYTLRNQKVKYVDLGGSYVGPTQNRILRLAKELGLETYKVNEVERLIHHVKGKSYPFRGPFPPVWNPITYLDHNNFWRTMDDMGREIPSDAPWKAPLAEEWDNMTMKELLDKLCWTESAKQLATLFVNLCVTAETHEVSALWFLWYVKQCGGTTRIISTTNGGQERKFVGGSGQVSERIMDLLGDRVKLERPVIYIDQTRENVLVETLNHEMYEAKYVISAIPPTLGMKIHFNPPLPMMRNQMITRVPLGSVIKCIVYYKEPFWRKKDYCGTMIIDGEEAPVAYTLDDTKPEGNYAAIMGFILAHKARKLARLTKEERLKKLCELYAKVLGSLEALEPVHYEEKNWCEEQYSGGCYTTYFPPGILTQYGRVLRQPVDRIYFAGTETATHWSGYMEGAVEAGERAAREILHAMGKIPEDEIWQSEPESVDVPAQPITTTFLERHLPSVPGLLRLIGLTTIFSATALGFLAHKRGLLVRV
Protocol Summary: Inhibition of recombinant human MAOB using p-tyramine as substrate assessed as H2O2 production preincubated for 15 mins followed by substrate addition by fluorometric analysis
pIC50: −log10 of the molar value.
Outcome Measure: pIC50

Example entries begin here.
>>> print(df.to_string())
                         compound_structure  outcome_measure  obs_value
0  COc1ccc(/C=C/c2cc(OC)cc(OC)c2/C=C/C(=O)c2cc3ccc(Cl)cc3oc2=O)cc1            pIC50       5.13
1  COc1ccc(/C=C/c2cc(OC)cc(OC)c2/C=C/C(=O)c2cc3c(OC)cccc3oc2=O)cc1            pIC50       4.84
2  COc1ccc(/C=C/c2cc(OC)cc(OC)c2/C=C/C(=O)c2cc3ccc(OC)cc3oc2=O)cc1            pIC50       5.38
3  COc1ccc(/C=C/c2cc(OC)cc(OC)c2/C=C/C(=O)c2cc3ccc(Br)cc3oc2=O)cc1            pIC50       4.26
4  CCOc1ccc2cc(C(=O)/C=C/c3c(/C=C/c4ccc(OC)cc4)cc(OC)cc3OC)c(=O)oc2c1            pIC50       4.32

[1] COc1ccc(/C=C/c2cc(OC)cc(OC)c2/C=C/C(=O)c2cc3cccc(OC)c3oc2=O)cc1
[2] COc1ccc(/C=C/c2cc(OC)cc(OC)c2/C=C/C(=O)c2cc3ccccc3oc2=O)cc1
[3] COc1ccc(/C=C/c2cc(OC)cc(OC)c2/C=C/C(=O)c2cc3cc(C)ccc3oc2=O)cc1
[in] Kindly order the items shown according to pIC50, from the highest value down. List the labels, following the order given in the request.
[out] 3, 2, 1

---

Protocol Summary: Toxicity in SPF Kuming mouse assessed as death at 500 to 1000 mg/kg, po measured up to 14 days
Format: organism-based
Measurement Setup: in vivo
Outcome Measure: LD50 at 336 h

>>> df
                         compound_structure     obs_value
0  CCOc1cccc2cc(C(=O)/C=C/c3c(/C=C/c4ccc(OC)cc4)cc(OC)cc3OC)c(=O)oc12  > 1000 mg/kg

[in] Give the measured LD50 at 336 h of `COc1ccc(/C=C/c2cc(OC)cc(OC)c2/C=C/C(=O)c2cc3ccc(C)cc3oc2=O)cc1` .
[out] > 1000 mg/kg

---

Species on record: Homo sapiens
Protocol Summary: Selectivity ratio of IC50 for recombinant human MAOA to IC50 for recombinant human MAOB
Outcome Measure: Ratio IC50

In [3]: df
Out[3]:
                         compound_structure  obs_value
0  COc1ccc(/C=C/c2cc(OC)cc(OC)c2/C=C/C(=O)c2cc3cc(C)ccc3oc2=O)cc1       5.97
1  COc1ccc(/C=C/c2cc(OC)cc(OC)c2/C=C/C(=O)c2cc3cc(F)ccc3oc2=O)cc1       4.36
2  COc1ccc(/C=C/c2cc(OC)cc(OC)c2/C=C/C(=O)c2cc3c(OC)cc(OC)cc3oc2=O)cc1        0.6
3  C=CCc1cc(OC)c2oc(=O)c(C(=O)/C=C/c3c(/C=C/c4ccc(OC)cc4)cc(OC)cc3OC)cc2c1        0.1
4  COc1ccc(/C=C/c2cc(OC)cc(OC)c2/C=C/C(=O)c2cc3ccc(C)cc3oc2=O)cc1       20.9

[a] COc1ccc(/C=C/c2cc(OC)cc(OC)c2/C=C/C(=O)c2cc3ccccc3oc2=O)cc1
[b] COc1ccc(/C=C/c2cc(OC)cc(OC)c2/C=C/C(=O)c2cc3ccc(Br)cc3oc2=O)cc1
[in] Please let me know which one, a or b , has a lower measured Ratio IC50 value. Reply with the label of the item you choose.
[out] b
(b: 0.05, a: 4.54)

---

Tested Target: Amine oxidase [flavin-containing] B (Homo sapiens, UniProt P27338)
Protocol Summary: Inhibition of recombinant human MAOB using p-tyramine as substrate assessed as H2O2 production preincubated for 15 mins followed by substrate addition by fluorometric analysis
Outcome Measure: IC50 (µM)

Example entries begin here.
>>> print(df.to_string())
                         compound_structure  outcome_measure  unit  obs_value
0  COc1ccc(/C=C/c2cc(OC)cc(OC)c2/C=C/C(=O)c2cc3cc(F)ccc3oc2=O)cc1             IC50    µM       10.2
1  COc1ccc(/C=C/c2cc(OC)cc(OC)c2/C=C/C(=O)c2cc3ccc(C)cc3oc2=O)cc1             IC50    µM       2.78
2  COc1ccc(/C=C/c2cc(OC)cc(OC)c2/C=C/C(=O)c2cc3c(OC)cc(OC)cc3oc2=O)cc1             IC50    µM       35.5

[A] C=CCc1cc(OC)c2oc(=O)c(C(=O)/C=C/c3c(/C=C/c4ccc(OC)cc4)cc(OC)cc3OC)cc2c1
[B] COc1ccc(/C=C/c2cc(OC)cc(OC)c2/C=C/C(=O)c2cc3cccc(C)c3oc2=O)cc1
[in] Please let me know which one, A or B , has a lower measured IC50 value. Reply with the label of the item you choose.
[out] B
(B: 20 µM, A: 50.5 µM)

---

Species on record: Homo sapiens
Protocol Summary: Selectivity ratio of IC50 for recombinant human MAOB to IC50 for recombinant human MAOA
Outcome Measure: Ratio IC50

                         compound_structure  outcome_measure  obs_value
0  CCOc1ccc2cc(C(=O)/C=C/c3c(/C=C/c4ccc(OC)cc4)cc(OC)cc3OC)c(=O)oc2c1       Ratio IC50        6.8

[P] COc1ccc(/C=C/c2cc(OC)cc(OC)c2/C=C/C(=O)c2cc3cc(C)ccc3oc2=O)cc1
[Q] COc1ccc(/C=C/c2cc(OC)cc(OC)c2/C=C/C(=O)c2cc3c(OC)cc(OC)cc3oc2=O)cc1
[R] C=CCc1cc(OC)c2oc(=O)c(C(=O)/C=C/c3c(/C=C/c4ccc(OC)cc4)cc(OC)cc3OC)cc2c1
[in] Kindly order the items shown according to Ratio IC50, from the highest value down. List the labels, following the order given in the request.
[out] R, Q, P
(R: 9.53, Q: 1.67, P: 0.17)

---

Species: Homo sapiens
Protocol Summary: Selectivity ratio of IC50 for recombinant human MAOA to IC50 for recombinant human MAOB
Outcome Measure: Ratio IC50

>>> df
                         compound_structure  obs_value
0  COc1ccc(/C=C/c2cc(OC)cc(OC)c2/C=C/C(=O)c2cc3c(OC)cccc3oc2=O)cc1     > 4.13
1  COc1ccc(/C=C/c2cc(OC)cc(OC)c2/C=C/C(=O)c2cc3cccc(C)c3oc2=O)cc1        > 3
2  COc1ccc(/C=C/c2cc(OC)cc(OC)c2/C=C/C(=O)c2cc3cc(Br)ccc3oc2=O)cc1      < 0.2
3  CCOc1ccc2cc(C(=O)/C=C/c3c(/C=C/c4ccc(OC)cc4)cc(OC)cc3OC)c(=O)oc2c1       0.15
4  COc1ccc(/C=C/c2cc(OC)cc(OC)c2/C=C/C(=O)c2cc3ccc(OC)cc3oc2=O)cc1     > 14.3

[in] Give the measured Ratio IC50 of `COc1ccc(/C=C/c2cc(OC)cc(OC)c2/C=C/C(=O)c2cc3cccc(OC)c3oc2=O)cc1` .
[out] > 2.68

[in] Give the measured Ratio IC50 of `CCOc1cccc2cc(C(=O)/C=C/c3c(/C=C/c4ccc(OC)cc4)cc(OC)cc3OC)c(=O)oc12` .
[out] < 0.05

[in] Give the measured Ratio IC50 of `COc1ccc(/C=C/c2cc(OC)cc(OC)c2/C=C/C(=O)c2cc3ccc(Cl)cc3oc2=O)cc1` .
[out] > 8.15
